The measurements presented in this section are drawn from ChEMBL document CHEMBL5058577.

Test system: U2OS
Experiment description: Multiplex assay against U2OS
Format: toxicity, cell-based
Condition details: human, 24 h, 10 µM, compound concentration 10 uM, replicate 1
Binary call on Population Fragmented Nuclei (%) with cut-off 20%: strictly below means rule met, and equality or higher means rule not met.

INSERT INTO measurements (molecule, discrete_label) VALUES
  ('C[C@@H]1C[C@H]2[C@@H]3CCC4=CC(=O)C=C[C@]4(C)[C@@]3(F)[C@@H](O)C[C@]2(C)[C@@]1(O)C(=O)CO [DEXAMETHASONE]', 'rule met'),
  ('CSc1ccccc1N1CCN(CCCCCC(=O)NC2CCCc3ccccc32)CC1.Cl (stereo not given)', 'rule not met'),
  ('CCCN1CCC[C@@H]2Cc3n[nH]cc3C[C@H]21.Cl [QUINPIROLE HYDROCHLORIDE]', 'rule met'),
  ('Cl.Clc1ccc2nsnc2c1NC1=NCCN1 [TIZANIDINE HYDROCHLORIDE]', 'rule not met');

====

Test system: Fibroblast
Experiment description: Multiplex assay against human fibroblast
Type: toxicity, cell-based
Condition details: 48 h, 10 µM, compound concentration 10 uM, replicate 1
Entries annotated with measured Population Mitotic Cells (%)
Parameter measured: Population Mitotic Cells (%)

INSERT INTO results (compound, parameter_measured, experimental_result) VALUES
  ('CC(=O)NCCc1c(Cc2ccccc2)[nH]c2ccccc12 [LUZINDOLE]', 'Population Mitotic Cells (%)', 20),
  ('CN1CCN2c3ncccc3Cc3ccccc3C2C1 (configuration not stated) [MIRTAZAPINE]', 'Population Mitotic Cells (%)', 33),
  ('C[C@@H]1C[C@H]2[C@@H]3CCC4=CC(=O)C=C[C@]4(C)[C@@]3(F)[C@@H](O)C[C@]2(C)[C@@]1(O)C(=O)CO [DEXAMETHASONE]', 'Population Mitotic Cells (%)', 50),
  ('COc1cc(NC(=O)CCN2CCC(OC(=O)Nc3ccccc3-c3ccccc3)CC2)c(Cl)cc1CNC[C@H](O)c1ccc(O)c2[nH]c(=O)ccc12 [BATEFENTEROL]', 'Population Mitotic Cells (%)', 25),
  ('N[C@@]1(C(=O)O)CO[C@H]2[C@H](C(=O)O)[C@H]21 [LY-379268]', 'Population Mitotic Cells (%)', 37),
  ('CCCN1CCC[C@@H]2Cc3n[nH]cc3C[C@H]21.Cl [QUINPIROLE HYDROCHLORIDE]', 'Population Mitotic Cells (%)', 46),
  ('CN1CCN(c2nc3cc(C(F)(F)F)ccc3n3cccc23)CC1.O=C(O)/C=C\C(=O)O.O=C(O)/C=C\C(=O)O', 'Population Mitotic Cells (%)', 22),
  ('Cc1nc2ccc(Oc3ccc(F)cc3)cc2c(=O)n1C[C@H]1CCCN(C(C)C)C1.Cl', 'Population Mitotic Cells (%)', 33),
  ('CCNC1(C(N)=O)CCN(c2ncnc3c2nc(-c2ccccc2Cl)n3-c2ccc(Cl)cc2)CC1 [OTENABANT]', 'Population Mitotic Cells (%)', 21),
  ('O=C(NCCO)c1cccc(-c2cc(Nc3ccc(OC(F)(F)F)cc3)ncn2)c1', 'Population Mitotic Cells (%)', 30),
  ('CNC[C@H](O)c1ccc(O)c(O)c1 [EPINEPHRINE]', 'Population Mitotic Cells (%)', 22),
  ('Cc1ccc(F)cc1C(=O)Nc1ccc(C(=O)N2Cc3cccn3Cc3ccccc32)c(Cl)c1 [LIXIVAPTAN]', 'Population Mitotic Cells (%)', 29),
  ('Cl.Clc1ccc2nsnc2c1NC1=NCCN1 [TIZANIDINE HYDROCHLORIDE]', 'Population Mitotic Cells (%)', 30),
  ('CN(C)c1ccnc2sc3c(=O)n(N4CCCCCC4)cnc3c12', 'Population Mitotic Cells (%)', 26),
  ('CC[C@H]1OC(=O)[C@H](C)[C@@H](O[C@H]2C[C@@](C)(OC)[C@@H](O)[C@H](C)O2)[C@H](C)[C@@H](O[C@@H]2O[C@H](C)C[C@H](N(C)C)[C@H]2O)[C@@]2(C)CC(C)=C(O2)[C@H](C)[C@@H](O)[C@]1(C)O', 'Population Mitotic Cells (%)', 15),
  ('O=C(NCC(=O)N1CC[C@H](N[C@H]2CC[C@@](O)(c3ccc(-c4ncccn4)cn3)CC2)C1)c1cccc(C(F)(F)F)c1 [PF-4136309]', 'Population Mitotic Cells (%)', 52),
  ('C[C@H]1[C@H]2CC[C@H]3[C@@H]4CC=C5C[C@@H](N(C)C)CC[C@]5(C)[C@H]4CC[C@]23CN1C [CONESSINE]', 'Population Mitotic Cells (%)', 33);
